target: HLA-A*69:01; assay: IEDB peptide-MHC binding, purified MHC/direct/fluorescence; filed as Kd, often an IC50 or EC50 that approximates it; bounds were set here for any values at or beyond the usual limits of such assays; settings: source organism: Pseudomonas aeruginosa
recorded.endpoint: Kd

Item: DLPPAIAAE | Kd: ≥ 20 µM

====

biological target: HLA-A*31:01; assay: IEDB peptide-MHC binding, purified MHC/direct/fluorescence; filed as Kd, often an IC50 or EC50 that approximates it; bounds were set here for any values at or beyond the usual limits of such assays; conditions: source organism: Influenza A virus (A/swine/Italy/809/1989(H3N2))
pKd: −log10 of the molar value.
recorded.endpoint: pKd

Lab note: measured pKd of EEIRRIWRQ was ≤ 4.70

====

target: HLA-A*02:01; assay: IEDB peptide-MHC binding, purified MHC/competitive/fluorescence; filed as Kd, often an IC50 or EC50 that approximates it; bounds were set here for any values at or beyond the usual limits of such assays; conditions: source organism: Orthohantavirus negraense
recorded.endpoint: Kd

For SLLFREVWK the sequence record lists Kd as ≥ 20 µM

====

molecular target: HLA-A*02:01; assay: IEDB peptide-MHC binding, purified MHC/competitive/radioactivity; filed as Kd, often an IC50 or EC50 that approximates it; bounds were set here for any values at or beyond the usual limits of such assays; details: source organism: Vaccinia virus WR
recorded.endpoint: pKd
Give only the number. pKd is defined as minus log10 of concentration in molar units.

For EVVMAYVGIK on HLA-A*02:01, measured pKd was 5.40

====

target: HLA-A*68:01; assay: IEDB peptide-MHC binding, purified MHC/competitive/radioactivity; filed as Kd, often an IC50 or EC50 that approximates it; bounds were set here for any values at or beyond the usual limits of such assays; conditions: source organism: Dengue virus 1 Brazil/97-11/1997
In this section we review reported pKd values for a set of sequences.
As a rule, pKd stands for the negative log10 of the concentration, concentration in M.

Answered examples (3):
MTSRMLLNR	7.26
GTMKIKDEER	6.78
EVMRSRWSR	7.88

Turning to the following sequence.
Record DTPSPPEVER , field pKd: 6.21

====

target: HLA-A*02:11; experiment: IEDB peptide-MHC binding, purified MHC/direct/fluorescence; filed as Kd, often an IC50 or EC50 that approximates it; bounds were set here for any values at or beyond the usual limits of such assays; details: source organism: Lyssavirus rabies
recorded.endpoint: Kd

// sample YLDNVGVHI , its Kd was ≥ 20 µM

====

biological target: HLA-A*01:01; test: IEDB peptide-MHC binding, purified MHC/direct/fluorescence; filed as Kd, often an IC50 or EC50 that approximates it; bounds were set here for any values at or beyond the usual limits of such assays; conditions: source organism: Homo sapiens
recorded.endpoint: Kd (µM)
Provide the reading as a plain figure in µM.

Recorded results for 2 sequences are shown here.
KSDLQPPNY	0.055
YLDDPDLKY	0.0668

Moving on to the next sequence.
According to the records, this sequence MCFHQHLMY displays Kd of 3.33

====

target: HLA-A*03:01; assay: IEDB peptide-MHC binding, purified MHC/competitive/radioactivity; filed as Kd, often an IC50 or EC50 that approximates it; bounds were set here for any values at or beyond the usual limits of such assays; settings: source organism: Vaccinia virus WR
# reported pKd; entries follow
Conceptually, pKd converts a concentration in mol/L into minus its log10.

# annotated cases, reported pKd shown
RSTAIKVTK	6.67
IILFILFFAY	6.14

The sequence identified as RFVKFNDYRK registered its pKd at 6.29

pKd measured on KLGDKGSPYY = 8.61

// pKd value for ALYYVHSLLY : 9.41

// pKd lookup, sequence = EFIFSALDEK , result: 7.81

ASILSLETVK yielded pKd of 5.33

PSILPSLIK yielded pKd of 5.73

Entry QILMKTANNY ; pKd = 6.97

====

target: HLA-B*18:01; experiment: IEDB peptide-MHC binding, purified MHC/competitive/fluorescence; filed as Kd, often an IC50 or EC50 that approximates it; bounds were set here for any values at or beyond the usual limits of such assays; details: source organism: Salmonella enterica subsp. enterica serovar Paratyphi A str. AKU_12601
pKd: −log10 of the molar value.
recorded.endpoint: pKd

Sure, the documented pKd for AMDTHLYFE is ≤ 4.70

====

biological target: HLA-A*02:06; experiment: IEDB peptide-MHC binding, purified MHC/competitive/radioactivity; filed as Kd, often an IC50 or EC50 that approximates it; bounds were set here for any values at or beyond the usual limits of such assays; settings: source organism: Trypanosoma cruzi
recorded.endpoint: pKd
A value of pKd is the negative decimal logarithm of a concentration given in moles per litre.

Item: GLLLLLLLLG | pKd: 6.38

====

molecular target: HLA-B*18:01; test: IEDB peptide-MHC binding, purified MHC/direct/fluorescence; filed as Kd, often an IC50 or EC50 that approximates it; bounds were set here for any values at or beyond the usual limits of such assays; conditions: source organism: Mammarenavirus juninense
pKd: −log10 of the molar value.
recorded.endpoint: pKd

Entry DLKLVDVKL — recorded pKd = ≤ 4.70

====

molecular target: HLA-C*06:02; assay: IEDB peptide-MHC binding, purified MHC/direct/fluorescence; filed as Kd, often an IC50 or EC50 that approximates it; bounds were set here for any values at or beyond the usual limits of such assays; conditions: source organism: Vibrio vulnificus CMCP6
recorded.endpoint: Kd (nM)
Unit nM implied. Number only.

// recorded Kd for FMIVNNFPV : 633

====

target: HLA-A*03:01; assay: IEDB peptide-MHC binding, purified MHC/direct/fluorescence; filed as Kd, often an IC50 or EC50 that approximates it; bounds were set here for any values at or beyond the usual limits of such assays; settings: source organism: Yellow fever virus
Here the recorded Kd is given for each entry.

TKDTNDNNL	≥ 20 µM

Entry IQYVIRAQL — recorded Kd = ≥ 20 µM

====

biological target: HLA-A*26:01; experiment: IEDB peptide-MHC binding, purified MHC/competitive/fluorescence; filed as Kd, often an IC50 or EC50 that approximates it; bounds were set here for any values at or beyond the usual limits of such assays; conditions: source organism: Campylobacter jejuni subsp. jejuni NCTC 11168 = ATCC 700819
pKd: −log10 of the molar value.
recorded.endpoint: pKd

Sure, the documented pKd for LELAEITAE is ≤ 4.70

====

target: HLA-B*46:01; experiment: IEDB peptide-MHC binding, purified MHC/direct/fluorescence; filed as Kd, often an IC50 or EC50 that approximates it; bounds were set here for any values at or beyond the usual limits of such assays; conditions: source organism: Shigella sonnei Ss046
pKd: −log10 of the molar value.
recorded.endpoint: pKd

Record VLDMGDPVK . Reported pKd: ≤ 4.70

====

target: HLA-A*11:01; experiment: IEDB peptide-MHC binding, purified MHC/competitive/radioactivity; filed as Kd, often an IC50 or EC50 that approximates it; bounds were set here for any values at or beyond the usual limits of such assays; details: source organism: Lassa virus Josiah
recorded.endpoint: Kd (µM)
Give the quantity in µM, number only.

# Kd of SFYLISIFLH = 17.1

====

target: HLA-B*51:01; test: IEDB peptide-MHC binding, purified MHC/competitive/fluorescence; bounds were set here for any values at or beyond the usual limits of such assays; conditions: source organism: Monodelphis domestica
pIC50: −log10 of the molar value.
recorded.endpoint: pIC50

pIC50 reading for LEYFQFVKKLL : ≤ 4.70

====

target: HLA-C*05:01; assay: IEDB peptide-MHC binding, purified MHC/direct/fluorescence; filed as Kd, often an IC50 or EC50 that approximates it; bounds were set here for any values at or beyond the usual limits of such assays; details: source organism: Homo sapiens
recorded.endpoint: Kd
Phrase the answer as number then unit, nothing more needed.

For this sequence ( RAQDPPPEL ), measured Kd is 663 nM

====

biological target: HLA-B*39:01; assay: IEDB peptide-MHC binding, purified MHC/competitive/fluorescence; filed as Kd, often an IC50 or EC50 that approximates it; bounds were set here for any values at or beyond the usual limits of such assays; conditions: source organism: Cryptosporidium parvum Iowa II
Each item that follows carries a reported Kd.

KSWLVHWSL	≥ 20 µM

Reported Kd for KSFSAGMFH was ≥ 20 µM

====

target: HLA-A*30:02; test: IEDB peptide-MHC binding, purified MHC/competitive/radioactivity; filed as Kd, often an IC50 or EC50 that approximates it; bounds were set here for any values at or beyond the usual limits of such assays; details: source organism: Mammarenavirus brazilense
recorded.endpoint: Kd (nM)
The figure you give is taken to be in nM; do not add the unit.

HSIKRNYPY	42.3

With those in mind, consider the next sequence.
Record KTFFWFNEV , field Kd: 59.2
